B1: H2-Kb / B13 (parent)
chain 1: AQKVTQTQTSISVMEKTTVTMDCVYETQDSSYFLFWYKQTASGEIVFLIRQDSYKKENATVGHYSLNFQKPKSSIGLIITATQIEDSAVYFCAMREGTGGYKVVFGSGTRLLVSP
chain 2: EAAVTQSPRNKVTVTGGNVTLSCRQTNSHNYMYWYRQDTGHGLRLIHYSYGAGNLQIGDVPDGYKATRTTQEDFFLLLELASPSQTSLYFCASSDGTGHEQYFGPGTRLTVL
chain 3: not shown
chain 4: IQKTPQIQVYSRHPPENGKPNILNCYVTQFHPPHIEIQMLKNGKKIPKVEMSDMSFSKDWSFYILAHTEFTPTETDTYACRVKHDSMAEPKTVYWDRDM
chain 5: SIINFEKL

variants of: B1; experiment: % of reporter cells activated (NFAT-GFP), raw; conditions: with B13; scale: % of reporter cells activated; note: test concentration or dose not given here
Listed here are variants together with their documented ratio to parent.
Form field (numeric): enter value without unit.

Below, 3 variants whose answers are already recorded.
mutation_annotation="chain 5 N4Q" recorded_number=0.0444
mutation_annotation="chain 5 L8M" recorded_number=0.471
mutation_annotation="chain 5 I2V" recorded_number=1.98

Please report ratio to parent for the following variant: chain 5 I2M
0.411

Please report ratio to parent for the following variant: chain 5 I2R
1.49

Please report ratio to parent for the following variant: chain 5 N4C
0.0444

Source of measurements: paper PMC11480844
